- Assay notes: soluble on expression in E. coli; label from the status in PepcDB or PDB records
Measured quantity: soluble on expression in E. coli

Check out these entries, answers already filled in.
| Record sequence | Measured quantity | Assay result |
| --- | --- | --- |
| MLSSSPASCTSPSPGTDNPDKKVHWASEKRRRASSTDSESKTHLDISKLPRSRRPSRLTVKYDRGHLQRWLEMEQWVDAQVQELFQGQEESSEPEIDLEALMDLSTEDQRTQLEAILQDCPGNREPFISELLSQLKRLRRLSRPSK | soluble on expression in E. coli | soluble |
| MGSDKIHHHHHHMKHFKYGAIALTLISGLAACGGSGSDEPEVVVPETGFSFDADALIVNLSDEVIVKGYSTLADRGEALLQATQTLVATPTQANLEAAQSAWKAARQPWEQGESHIFGPVDSLGIDPHLDSWPLNTTDLKTVLINSSGFDAETIKGWNDDVQGFHTMEFLLFGDGMDDNVKQIDELTANERDYLMGLAEVFRDYTKQLADAWLVSHDGQSGKAYGELLKSPGVDGNTFYSSQVGVLEELIKGMIGIVDEVGNGKIADPFGGSLASADTSKVESQYSWNSLTDFSDNIIGVRNVYQGEFTGEADKQGIIDFVRAADSELASRIAAEIDAAILQIHAIEGTDKMPFRQAIKDEAGRARIQKAVDALATLQASLENQVLPLLKEWKV | soluble on expression in E. coli | not soluble |
| MLQSINQLNPDIVVITGDLTENGFSAEYDGVKMFIDRIECKNRVLVPGNHDSKNAGYLHFEDLFENRFQTRNLGNMTIVGADSSQPDIDDGHLGRENYGWIKEAFSGENFKVFALHHHLVPIPLAGRENTVLVDAGDVLDLLNKCRVNLVLCGHCHIPHVWNLNNMLVVNAGTFCSSKTRGKTTQCFNLIQAENSEKNGNGESEKIEDGGWKVRVSRVFPQGNIEFITETVMLEHHHHHH | soluble on expression in E. coli | not soluble |
| MSLADLLDTVKQRGALKIALEGTYPPFNFKDAKQQLTGFDVEIATEIARRMKVKPEFVTAEWSGLLAGLQSGKFDIVVNQVGVTAQRQAVFDFSQPYTYSSAQLIVRKNESRDFKNLADLKGKKLGVGQGSNYADMAKAAAGVQVKTYPGAPEYLQDLATGRLDAALNDSLLIPFAIKQAKLPLKAGAPVGEVAAMAIPFAKGNPQFKSEIDKALGGMKADGTFRKISVKWFGIDVSKAEGHHHHHH | soluble on expression in E. coli | soluble |
| MGSDKIHHHHHHMKISPLCPSCLLGRVYYEAKLVTDDEDLISQCVDESLKILAENYSSRPINAHLATRIHRRVYEILGVEDPYAEVKARANEVARQVLPLAKEIVEGSDDPFKTAVIVSIVGNNFDYGVQGHKVVEEEFRDFLKRKVQEGLKINDTERIKELSSGKVVYLTDNAGEIFFDTLLMKEIKRRCEKLTAVVRGRPIISDATIEDARLARVDKIADELLTNGKGAIGIIMDELPDETRKALEEADLIVAKGMANYECLSDGSLKPIAFLLTAKCEPVARDIGVNVGDMVAKVVE | soluble on expression in E. coli | soluble |

Moving on to another sequence below.
Request: For the sequence MSLRKHCIAIGGGGWMMGENPSPLYQYILSLSGKENPNICFLPTATGDADEVIERFYNAKLSENVTHFPLFKFDAGWKETLFEQDIIYVGGGNTRSMLAIWREWGIDRILKQCYEQGIIICGMSAGAICWFEFAVTDSDPEAYQVMRCLGLIDGLAAAHFSHVGEKFEVFQAFARSQPSITCYGIHDYAALHFVDGKLLATVTSFPDAGVLVKTGNDENILRGEGHHHHHH , what soluble on expression in E. coli is on record?
Result: soluble

// data source = the DeepSol protein solubility set
